Experiment: qHTS assay for small molecule disruptors of the mitochondrial membrane potential (AID 720635)
Settings: HepG2 mitochondrial membrane potential, Mito-MPS dye ratio; series mostly up to 83.2 µM
Results filed as inconclusive are left out. The source made the active and inactive calls. Calls come from the whole dose curve; as a rule, active = well fitted inhibition curve with a large enough effect in the signal ratio in the repeat runs; inconclusive = weak or mixed curves, or effect the other way; inactive = flat fitted curve, though single readings scatter; the % refers to the signal ratio.
Measure name: outcome

Here's what some known entries look like.
CN(C)CCC#N; inactive
CN(C)C(=O)C(c1ccccc1)c1ccccc1; inactive
O=[N+]([O-])c1cc([As](=O)(O)O)ccc1O; inactive
COS(=O)(=O)OC; inactive
Cl[C@H]1OCCO[C@@H]1Cl; inactive

# lookup: outcome of CN1C(=O)CCS(=O)(=O)C1c1ccc(Cl)cc1 (centres undefined)
inactive

# lookup: outcome of Cc1cccc(N)c1
inactive

# lookup: outcome of O=C(O)c1cc(Oc2ccc(C(F)(F)F)cc2Cl)ccc1[N+](=O)[O-]
inactive

# lookup: outcome of N#Cc1ccccn1
inactive
